Target: V599E Raf (Homo sapiens, UniProt P15056, V600E)
Sequence (P15056 whole entry V600E): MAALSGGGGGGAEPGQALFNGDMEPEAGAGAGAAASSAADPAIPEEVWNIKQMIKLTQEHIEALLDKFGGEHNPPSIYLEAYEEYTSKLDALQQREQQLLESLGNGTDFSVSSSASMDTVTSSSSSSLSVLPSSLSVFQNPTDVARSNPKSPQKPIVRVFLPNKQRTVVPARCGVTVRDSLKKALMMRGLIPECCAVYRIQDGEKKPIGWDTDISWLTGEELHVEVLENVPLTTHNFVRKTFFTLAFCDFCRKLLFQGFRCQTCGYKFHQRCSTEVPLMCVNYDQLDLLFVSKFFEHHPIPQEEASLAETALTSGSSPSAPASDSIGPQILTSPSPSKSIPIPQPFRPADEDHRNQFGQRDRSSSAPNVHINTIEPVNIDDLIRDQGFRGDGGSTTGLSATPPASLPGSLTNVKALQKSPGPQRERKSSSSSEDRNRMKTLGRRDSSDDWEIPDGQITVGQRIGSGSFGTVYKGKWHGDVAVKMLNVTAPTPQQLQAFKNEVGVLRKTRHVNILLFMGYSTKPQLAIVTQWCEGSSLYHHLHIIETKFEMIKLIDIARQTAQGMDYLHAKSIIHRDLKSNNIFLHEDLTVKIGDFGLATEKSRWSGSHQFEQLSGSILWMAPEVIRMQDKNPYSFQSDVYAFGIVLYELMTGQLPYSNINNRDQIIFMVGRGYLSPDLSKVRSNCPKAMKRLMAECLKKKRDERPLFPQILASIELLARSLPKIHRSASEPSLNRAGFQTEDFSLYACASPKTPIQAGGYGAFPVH
Assay: Biochemical FRET assay, mutant Raf (phosphorylation of MEK)
Details: 0.125 nM V599E Raf, 100 nM biotin-MEK, 25 μM ATP, read-out: Raf (mut) inhibition
measured-endpoint: IC50

Please review the entries below; each comes with its answer.
[
  {
    "compound": "CC(NC(=O)c1cnc2nccn2c1)c1cnc(Nc2ccc(C(F)(F)F)cc2)s1 (stereo not drawn)",
    "target-entity": "V599E Raf (Homo sapiens, UniProt P15056, V600E)",
    "IC50": "100 to 1000 nM"
  },
  {
    "compound": "C[C@@H](NC(=O)c1cn[nH]c1-c1ccccc1)c1ncc(C(=O)Nc2cc(C(F)(F)F)c(Cl)cn2)s1",
    "target-entity": "V599E Raf (Homo sapiens, UniProt P15056, V600E)",
    "IC50": "≤ 100 nM"
  },
  {
    "compound": "CC(NC(=O)c1cc2c(cn1)ncn2C)c1cnc(Nc2ccc(C(F)(F)F)cn2)cn1 (stereo not drawn) [Example 262]",
    "target-entity": "V599E Raf (Homo sapiens, UniProt P15056, V600E)",
    "IC50": "≤ 100 nM"
  },
  {
    "compound": "C[C@@H](NC(=O)c1cnc2n1CCCN2C)c1ncc(C(=O)Nc2cc(C(F)(F)F)c(Cl)cn2)s1",
    "target-entity": "V599E Raf (Homo sapiens, UniProt P15056, V600E)",
    "IC50": "≤ 100 nM"
  },
  {
    "compound": "C[C@@H](NC(=O)c1cnn(C)c1CN1CCC(F)(F)C1)c1ncc(C(=O)Nc2cc(C(F)(F)F)c(Cl)cn2)s1",
    "target-entity": "V599E Raf (Homo sapiens, UniProt P15056, V600E)",
    "IC50": "100 to 1000 nM"
  },
  {
    "compound": "C[C@@H](NC(=O)c1cccc(Br)n1)c1ncc(C(=O)Nc2cc(C(F)(F)F)c(Cl)cn2)s1",
    "target-entity": "V599E Raf (Homo sapiens, UniProt P15056, V600E)",
    "IC50": "100 to 1000 nM"
  },
  {
    "compound": "CC(NC(=O)c1cn2ccnc2cn1)c1cnc(Nc2ccc(C(F)(F)F)cc2)s1 (stereo not drawn)",
    "target-entity": "V599E Raf (Homo sapiens, UniProt P15056, V600E)",
    "IC50": "≤ 100 nM"
  },
  {
    "compound": "C[C@@H](NC(=O)c1cnn(-c2ccccc2)c1N)c1ncc(C(=O)Nc2cc(C(F)(F)F)c(Cl)cn2)s1",
    "target-entity": "V599E Raf (Homo sapiens, UniProt P15056, V600E)",
    "IC50": "100 to 1000 nM"
  }
]

Record IC50 for all entries; do not skip any.
1. CC(NC(=O)c1cc2c(cn1)ncn2C1CCC1)c1cnc(Nc2cnc(C(C)(C)C)nc2)s1 (stereo not drawn)
2. CC(NC(=O)c1cc2c(cn1)ncn2C1CCC1)c1cnc(Nc2ccc(C(F)(F)F)cc2)cn1 (stereo not drawn)
3. C[C@@H](NC(=O)c1cc2ncn(C)c2cn1)c1ncc(C(=O)Nc2cc(C(F)(F)F)c(Cl)cn2)s1

Output:
1. ≤ 100 nM
2. ≤ 100 nM
3. ≤ 100 nM

* * *

Tested on: phospho-ERK in melanoma derived WM-266-4 cells
Test: Mechanistic cellular assay for Raf kinase activity (phospho-ERK, Bio-Plex)
Type: cell-based
Details: Homo sapiens, treated 1-2 hr at 37° C., serum free medium, read-out: pERK EC50
Description: (2) Mechanistic Cellular Assay for Raf Kinase Activity The following method was utilized for quantifying the amount of phospho-ERK in melanoma derived WM-266-4 cells (one allele each of wild type BRaf and mutant BRaf (V600D) as an indicator of Raf kinase activity in cells treated with various kinase inhibitors. […] (2) Prepared phospho-ERK1,2 Bioplex beads by diluting 1:50 with Bioplex Wash Buffer (mixing 49 μL Wash Buffer with 1 μL of phospho-ERK1,2 Bioplex beads for each sample to be analyzed). […]
pEC50: −log10 of the molar value.
measured-endpoint: pEC50

[
  {
    "compound": "C[C@@H](NC(=O)c1cn(C)cn1)c1ncc(C(=O)Nc2cc(C(F)(F)F)c(Cl)cn2)s1",
    "measured": "5.00 to 6.00"
  },
  {
    "compound": "C[C@H](NC(=O)c1cc2c(cn1)ncn2C)c1cnc(Nc2ccc(C(F)(F)F)nc2)s1 (single isomer, unassigned)",
    "measured": "≥ 7.00"
  },
  {
    "compound": "C[C@@H](NC(=O)c1ccc2[nH]c(C(F)(F)F)nc2c1)c1ncc(C(=O)Nc2cc(C(F)(F)F)c(Cl)cn2)s1",
    "measured": "5.00 to 6.00"
  },
  {
    "compound": "C[C@@H](NC(=O)c1cnc2sccn12)c1ncc(C(=O)Nc2cc(C(F)(F)F)c(Cl)cn2)s1",
    "measured": "6.00 to 7.00"
  }
]

Record pEC50 for all entries; do not skip any.
1. COc1ncc(C(=O)N[C@H](C)c2ncc(C(=O)Nc3cc(C(F)(F)F)c(Cl)cn3)s2)n1C
2. Cc1nn(C)c(C)c1C(=O)N[C@H](C)c1ncc(C(=O)Nc2cc(C(F)(F)F)c(Cl)cn2)s1
3. C[C@@H](NC(=O)c1ccc2nccnc2c1)c1ncc(C(=O)Nc2cc(C(F)(F)F)c(Cl)cn2)s1

Output:
5.00 to 6.00
5.00 to 6.00
≥ 7.00

* * *

Tested on: phospho-ERK in melanoma derived WM-266-4 cells
Experiment: Mechanistic cellular assay for Raf kinase activity (phospho-ERK, Bio-Plex)
Type: cell-based
Details: Homo sapiens, treated 1-2 hr at 37° C., serum free medium, read-out: pERK EC50
pEC50: −log10 of the molar value.
What pEC50 was measured for each of the following?

Please review the entries below; each comes with its answer.
[
  {
    "compound": "Cc1ccc(NC(=O)c2cc([C@@H](C)NC(=O)c3cnn4cc(-c5ccncn5)cnc34)no2)cc1C(F)(F)F",
    "target-entity": "phospho-ERK in melanoma derived WM-266-4 cells",
    "measured": "6.00 to 7.00"
  },
  {
    "compound": "COc1cn2ncnc(C(=O)NC(C)c3cnc(Nc4ccc(C(F)(F)F)cc4)s3)c2c1C (stereo not shown)",
    "target-entity": "phospho-ERK in melanoma derived WM-266-4 cells",
    "measured": "6.00 to 7.00"
  },
  {
    "compound": "C[C@@H](NC(=O)c1csc(N)n1)c1ncc(C(=O)Nc2cc(C(F)(F)F)c(Cl)cn2)s1",
    "target-entity": "phospho-ERK in melanoma derived WM-266-4 cells",
    "measured": "5.00 to 6.00"
  }
]

Record pEC50 for all entries; do not skip any.
1. CC(NC(=O)c1cc2nc[nH]c2cn1)c1ncc(C(=O)Nc2cc(C(F)(F)F)c(Cl)cn2)s1 (stereo not shown)
2. C[C@@H](NC(=O)c1cnn2ccccc12)c1cc(C(=O)Nc2nc3ccccc3[nH]2)on1
3. CC(NC(=O)c1cnn2cccnc12)c1cnc(Nc2ccc(C(F)(F)F)cc2)s1 (stereo not shown)
4. Cc1nc(-c2cnccn2)sc1C(=O)N[C@H](C)c1ncc(C(=O)Nc2cc(C(F)(F)F)c(Cl)cn2)s1

Output:
1. ≥ 7.00
2. 5.00 to 6.00
3. 5.00 to 6.00
4. 5.00 to 6.00

* * *

Target: V599E Raf (Homo sapiens, UniProt P15056, V600E)
Experiment: Biochemical FRET assay, mutant Raf (phosphorylation of MEK)
Conditions: 0.125 nM V599E Raf, 100 nM biotin-MEK, 25 μM ATP, read-out: Raf (mut) inhibition
pIC50: −log10 of the molar value.
measured-endpoint: pIC50

Please review the entries below; each comes with its answer.
[
  {
    "compound": "Cc1nn(C)cc1C(=O)N[C@H](C)c1ncc(C(=O)Nc2cc(C(F)(F)F)c(Cl)cn2)s1 [Example 123]",
    "pIC50": "6.00 to 7.00"
  },
  {
    "compound": "C[C@@H](NC(=O)c1cnn2ccccc12)c1cc(C(=O)NC2C[C@@H]3CC[C@H]2C3)on1 (stereo partly shown) [Example 213]",
    "pIC50": "5.00 to 6.00"
  }
]

Record pIC50 for all entries; do not skip any.
1. C[C@H](NC(=O)c1cc2c(cn1)ncn2C)c1cnc(Nc2ccc(C(F)(F)F)nc2)s1 (single isomer, unassigned) [Example 267]
2. Cc1ccc(NC(=O)c2cc([C@H](C)NC(=O)c3cnn4ccccc34)on2)cc1C(F)(F)F [Example 227]
3. CC(NC(=O)c1cc2cn(C)nc2cn1)c1cnc(Nc2ccc(C(F)(F)F)cc2)s1 (stereo not shown) [Example 203]

Output:
1. ≥ 7.00
2. ≥ 7.00
3. ≥ 7.00

Record pIC50 for all entries; do not skip any.
1. C[C@@H](NC(=O)c1cnn2ccccc12)c1cc(C(=O)Nc2nc(C(C)(C)C)ncc2N)no1 [Example 228]
2. CC(NC(=O)c1cnc2n1CCCN2)c1cnc(Nc2ccc(C(F)(F)F)cc2)s1 (stereo not shown) [Example 177]

Output:
["6.00 to 7.00", "≥ 7.00"]
